molecular target: hD2L receptor (Homo sapiens, UniProt P14416); construct: purchased BioSignal Packard Inc., Montreal, Canada; experiment: Radioligand binding, dopamine D2 ([3H]spiperone); details: read-out: Binding affinity (Inhibition rate % at 10 μM) D2
Sequence (P14416 whole entry): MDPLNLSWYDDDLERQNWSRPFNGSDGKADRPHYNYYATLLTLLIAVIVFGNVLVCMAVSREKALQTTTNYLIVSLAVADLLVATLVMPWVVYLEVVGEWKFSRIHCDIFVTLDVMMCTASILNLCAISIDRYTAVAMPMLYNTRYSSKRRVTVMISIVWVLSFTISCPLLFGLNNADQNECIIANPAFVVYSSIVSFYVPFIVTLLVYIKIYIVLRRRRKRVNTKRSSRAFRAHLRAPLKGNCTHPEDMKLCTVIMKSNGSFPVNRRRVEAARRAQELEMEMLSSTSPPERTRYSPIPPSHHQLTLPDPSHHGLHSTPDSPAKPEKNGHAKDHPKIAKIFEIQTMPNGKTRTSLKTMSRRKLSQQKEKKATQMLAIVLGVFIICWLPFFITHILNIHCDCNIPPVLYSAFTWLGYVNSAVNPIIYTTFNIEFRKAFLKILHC
// bucketize inhibition at 10 µM: band A (below 10%), band B (10% to below 20%), band C (20% or more)

1) COc1cc(C2(C)C(=O)Nc3ccccc3C2=O)ccc1O (stereo not drawn) | band A
2) CN1CCN(c2cc(Cl)c3c(c2)NC(=O)C(C)(c2ccc([N+](=O)[O-])cc2)C3=O)CC1 (stereo not drawn) | band B
3) C[C@H](NC(=O)Nc1cccc([C@]2(C)C(=O)Nc3cc(Cl)cc(Cl)c3C2=O)c1)c1ccccc1 | band B
4) CCNc1ccc(C2(C)C(=O)Nc3cc(Cl)cc(Cl)c3C2=O)cc1 (stereo not drawn) | band C
5) CC1(c2ccc(N)cc2)C(=O)Nc2cc(Cl)cc(Cl)c2C1=O (stereo not drawn) | band A
6) CN(C)c1ccc(C2(C)C(=O)Nc3cc(Cl)cc(Cl)c3C2=O)cc1 (stereo not drawn) | band B
7) C[C@H](NC(=O)Oc1ccc(C2(C)C(=O)Nc3cc(Cl)cc(Cl)c3C2=O)cc1)c1ccccc1 (stereo partly drawn) | band A
8) CN1CCN(c2cc(Cl)c3c(c2)NC(=O)C(C)(c2ccc(O)cc2)C3=O)CC1 (stereo not drawn) | band C
9) COc1cc(Br)c2c(c1)NC(=O)C(C)(c1ccccc1)C2=O (stereo not drawn) | band B
10) COc1ccc(C2(C)C(=O)Nc3cc(N4CCN(C)CC4)cc(Cl)c3C2=O)cc1 (stereo not drawn) | band C
11) CC1(c2ccccc2)C(=O)Nc2c(Br)cc(Br)cc2C1=O (stereo not drawn) | band B
12) COc1cc2c(c(OC)c1)C(=O)C(C)(c1ccccc1)C(=O)N2 (stereo not drawn) | band B
13) COc1cc(Cl)cc2c1C(=O)C(C)(c1ccccc1)C(=O)N2 (stereo not drawn) | band C
14) COc1ccc(C2(C)C(=O)Nc3ccccc3C2=O)cc1 (stereo not drawn) | band C
15) CC1(c2ccc(Br)cc2)C(=O)Nc2cc(Cl)cc(Cl)c2C1=O (stereo not drawn) | band B
16) CC1(c2cccc(OCc3ccccc3)c2)C(=O)Nc2cc(Cl)cc(Cl)c2C1=O (stereo not drawn) | band C

====

target: 5-HT2a (Homo sapiens); construct: purchased Euroscreen/BioSignal Packard Inc; experiment: Radioligand binding, 5-HT2a ([3H]Ketanserin); details: read-out: Binding affinity (Inhibition rate % at 10 μM) 5HT2a
Sequence (P28223 whole entry): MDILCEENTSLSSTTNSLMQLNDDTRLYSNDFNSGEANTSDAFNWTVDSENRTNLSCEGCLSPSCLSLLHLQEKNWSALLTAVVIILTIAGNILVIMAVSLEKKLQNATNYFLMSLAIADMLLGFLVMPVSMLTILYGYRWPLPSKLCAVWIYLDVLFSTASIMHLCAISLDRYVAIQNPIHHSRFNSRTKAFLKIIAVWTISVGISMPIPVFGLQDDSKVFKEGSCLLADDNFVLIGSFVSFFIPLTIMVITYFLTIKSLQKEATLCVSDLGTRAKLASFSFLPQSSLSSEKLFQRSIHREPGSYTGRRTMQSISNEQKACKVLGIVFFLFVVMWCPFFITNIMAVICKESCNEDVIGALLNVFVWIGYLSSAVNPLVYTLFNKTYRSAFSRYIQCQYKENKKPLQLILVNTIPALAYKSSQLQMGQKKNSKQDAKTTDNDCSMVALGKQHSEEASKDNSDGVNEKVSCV
Each entry below carries its recorded inhibition at 10 µM.
readout name: inhibition at 10 µM

1) CN(C)c1cc(Cl)c2c(c1)NC(=O)C(C)(c1ccccc1)C2=O (stereo not drawn) | 30.4%
2) CC1(c2ccc(O)c(N)c2)C(=O)Nc2c(Br)cc(Br)cc2C1=O (stereo not drawn) | 35.1%
3) COc1ccc(C2(C)C(=O)Nc3c(Br)cc(Br)cc3C2=O)cc1N (stereo not drawn) | 21.1%
4) CC1(c2ccccc2)C(=O)Nc2cc(Cl)cc(Cl)c2C1=O (stereo not drawn) | 6.4%
5) COc1cc2c(c(OC)c1)C(=O)C(C)(c1ccccc1)C(=O)N2 (stereo not drawn) | 13.6%
6) CC1(c2ccc(O)cc2)C(=O)Nc2cc(Cl)cc(Cl)c2C1=O (stereo not drawn) | 48.6%
7) CC1(c2ccc(OCc3ccccc3)c(Br)c2)C(=O)Nc2cc(Cl)cc(Cl)c2C1=O (stereo not drawn) | 26.4%
8) CC1(c2ccccc2)C(=O)Nc2cc(Br)cc(Br)c2C1=O (stereo not drawn) | 13.6%
9) CN1CCN(c2ccc3c(c2)NC(=O)C(C)(c2ccc(N)cc2)C3=O)CC1 (stereo not drawn) | 21.5%

====

We begin with a simple list: items and their reported inhibition at 10 µM.
target: human serotonin 5-HT6 receptor (Homo sapiens, UniProt P50406); construct: made in house; host or cells: Sf21 insect cells (pBacPAK8 baculovirus vector); experiment: [3H]LSD binding at cloned 5-HT6 receptors; settings: read-out: Binding affinity (Inhibition rate % at 10 μM) 5HT6
Sequence (P50406 whole entry): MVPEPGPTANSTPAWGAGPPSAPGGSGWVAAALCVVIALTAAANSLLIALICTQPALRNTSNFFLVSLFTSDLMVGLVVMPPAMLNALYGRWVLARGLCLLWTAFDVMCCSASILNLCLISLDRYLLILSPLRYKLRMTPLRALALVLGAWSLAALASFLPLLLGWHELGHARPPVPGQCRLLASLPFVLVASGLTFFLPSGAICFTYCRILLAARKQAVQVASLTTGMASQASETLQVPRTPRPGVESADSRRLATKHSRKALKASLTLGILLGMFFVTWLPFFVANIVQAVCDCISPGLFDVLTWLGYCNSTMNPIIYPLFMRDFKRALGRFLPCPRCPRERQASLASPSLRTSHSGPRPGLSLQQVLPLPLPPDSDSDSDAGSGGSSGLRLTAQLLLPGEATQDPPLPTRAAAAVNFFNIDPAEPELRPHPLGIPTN
readout name: inhibition at 10 µM (%)

1. C[C@H](NC(=O)Nc1cccc([C@]2(C)C(=O)Nc3cc(Cl)cc(Cl)c3C2=O)c1)c1ccccc1 | 73.8
2. CC1(c2ccc([N+](=O)[O-])cc2)C(=O)Nc2cc(Cl)ccc2C1=O (centres unmarked) | 73.3
3. CNc1ccc(C2(C)C(=O)Nc3cc(Cl)cc(Cl)c3C2=O)cc1 (centres unmarked) | 72
4. CC1(c2ccc(O)c(O)c2)C(=O)Nc2ccccc2C1=O (centres unmarked) | 71
5. CN1CCN(c2cc(Cl)c3c(c2)NC(=O)C(C)(c2ccc(O)cc2)C3=O)CC1 (centres unmarked) | 71.9
6. CC1(c2ccc(Br)cc2Br)C(=O)Nc2cc(Cl)cc(Cl)c2C1=O (centres unmarked) | 71.1
7. CN1CCN(c2ccc3c(c2)NC(=O)C(C)(c2ccc([N+](=O)[O-])cc2)C3=O)CC1 (centres unmarked) | 73.5
8. COc1ccc(C2(C)C(=O)Nc3cc(OC)cc(Cl)c3C2=O)cc1 (centres unmarked) | 69.1

====

readout name: melting point

1) COc1ccc(C2(C)C(=O)Nc3cc(OC)cc(Cl)c3C2=O)cc1 (stereo not shown) [Example 35] | 222 to 224 °C
2) CC1(c2ccccc2)C(=O)Nc2cc(Br)cc(Br)c2C1=O (stereo not shown) [Example 4] | 202 to 203 °C
3) CC1(c2ccccc2)C(=O)Nc2cc(Cl)ccc2C1=O (stereo not shown) [Example 3] | 174 to 175 °C
4) CC1(c2ccc(OCc3ccccc3)c(Br)c2)C(=O)Nc2cc(Cl)cc(Cl)c2C1=O (stereo not shown) [Example 23] | 189 to 190 °C
5) CC1(c2ccccc2)C(=O)Nc2cc(Cl)c(Cl)cc2C1=O (stereo not shown) [Example 9] | 213 to 214 °C
6) CC1(c2ccc(N)cc2)C(=O)Nc2cc(Cl)ccc2C1=O (stereo not shown) [Example 38] | 155 to 156 °C
7) COc1ccc(C2(C)C(=O)Nc3cc(Cl)cc(Cl)c3C2=O)cc1 (stereo not shown) [Example 12] | 210 to 212 °C
8) CC1(c2ccc(O)c(O)c2)C(=O)Nc2ccccc2C1=O (stereo not shown) [Example 32] | 259 to 261 °C
9) CC1(c2ccccc2)C(=O)Nc2cc(Cl)cc(Cl)c2C1=O (stereo not shown) [Example 1] | 222 to 225 °C
10) CCN(CC)c1ccc(C2(C)C(=O)Nc3cc(Cl)cc(Cl)c3C2=O)cc1 (stereo not shown) [Example 42] | 247 to 249 °C
11) CC1(c2ccc(O)cc2)C(=O)Nc2cc(Cl)cc(Cl)c2C1=O (stereo not shown) [Example 13] | 222 to 223 °C
12) COc1cc(C2(C)C(=O)Nc3ccccc3C2=O)ccc1O (stereo not shown) [Example 31] | 168 to 169 °C
13) CC1(c2ccc(O)c(Br)c2)C(=O)Nc2cc(Cl)cc(Cl)c2C1=O (stereo not shown) [Example 24] | 228 to 229 °C
14) COc1cc(Cl)cc2c1C(=O)C(C)(c1ccccc1)C(=O)N2 (stereo not shown) [Example 6] | 267 to 269 °C
15) CC1(c2ccc(O)c([N+](=O)[O-])c2)C(=O)Nc2cc(Cl)cc(Cl)c2C1=O (stereo not shown) [Example 22] | 239 to 240 °C
16) CC1(c2ccc(Br)cc2)C(=O)Nc2cc(Cl)cc(Cl)c2C1=O (stereo not shown) [Example 18] | 237 to 238 °C

====

Overview of reported inhibition at 10 µM across a group of compounds:
target: 5-HT2a (Homo sapiens); construct: purchased Euroscreen/BioSignal Packard Inc; test: Radioligand binding, 5-HT2a ([3H]Ketanserin); conditions: read-out: Binding affinity (Inhibition rate % at 10 μM) 5HT2a
readout name: inhibition at 10 µM (%)

1. COc1ccc(NS(=O)(=O)c2sc3ccc(Cl)cc3c2C)cc1N1CCNCC1 [SB-271046, reference compound] | 60.1
2. CCNc1ccc(C2(C)C(=O)Nc3cc(Cl)cc(Cl)c3C2=O)cc1 (centres unmarked) [Example 41] | 10.8
3. CC1(c2cccc(O)c2)C(=O)Nc2cc(Cl)cc(Cl)c2C1=O (centres unmarked) [Example 20] | 46.1
4. CC1(c2cccc(OCc3ccccc3)c2)C(=O)Nc2cc(Cl)cc(Cl)c2C1=O (centres unmarked) [Example 19] | 67.3
5. CC1(c2ccc(O)cc2)C(=O)Nc2ccccc2C1=O (centres unmarked) [Example 34] | 13.5

====

biological target: hD4.2 receptor (Homo sapiens, UniProt P21917, DEL265-296); construct: purchased BioSignal Packard Inc., Montreal, Canada; assay: Radioligand binding, dopamine D4 ([3H]YM-09151-2); settings: read-out: Binding affinity (Inhibition rate % at 10 μM) D4
Sequence (P21917 with tags, fused parts or gaps DEL265-296): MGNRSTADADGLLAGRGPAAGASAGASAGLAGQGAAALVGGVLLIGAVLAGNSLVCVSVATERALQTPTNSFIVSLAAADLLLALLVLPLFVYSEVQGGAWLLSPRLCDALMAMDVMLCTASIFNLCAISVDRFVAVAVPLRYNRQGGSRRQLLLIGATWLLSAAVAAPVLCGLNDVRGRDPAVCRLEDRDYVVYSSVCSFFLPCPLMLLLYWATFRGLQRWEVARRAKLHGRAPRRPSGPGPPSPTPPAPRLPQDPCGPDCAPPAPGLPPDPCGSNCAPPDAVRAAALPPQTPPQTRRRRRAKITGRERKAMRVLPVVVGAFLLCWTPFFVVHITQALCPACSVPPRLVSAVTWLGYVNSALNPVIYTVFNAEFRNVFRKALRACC
Threshold check on inhibition at 10 µM: at or above 0.5% gives YES, strictly below gives NO.

1) CC1(c2ccc(OCc3ccccc3)c(Br)c2)C(=O)Nc2cc(Cl)cc(Cl)c2C1=O (centres unmarked) [Example 23] | YES
2) CC1(c2ccccc2)C(=O)Nc2cc(Cl)ccc2C1=O (centres unmarked) [Example 3] | NO
3) C[C@H](NC(=O)Nc1cccc([C@]2(C)C(=O)Nc3cc(Cl)cc(Cl)c3C2=O)c1)c1ccccc1 [Example 44] | NO
4) C[C@H](NC(=O)Oc1ccc(C2(C)C(=O)Nc3cc(Cl)cc(Cl)c3C2=O)cc1)c1ccccc1 (some centres unmarked) [Example 25] | NO
5) CC1(c2cccc(O)c2)C(=O)Nc2cc(Cl)cc(Cl)c2C1=O (centres unmarked) [Example 20] | NO
6) C[C@H](NC(=O)Nc1cccc([C@@]2(C)C(=O)Nc3cc(Cl)cc(Cl)c3C2=O)c1)c1ccccc1 [Example 43] | YES
7) CC1(c2ccc(Br)cc2Br)C(=O)Nc2cc(Cl)ccc2C1=O (centres unmarked) [Example 45] | NO
8) CC1(c2ccccc2)C(=O)Nc2ccccc2C1=O (centres unmarked) [Example 2, 3-methyl-3-phenyl-1H-quinoline-2,4-dione] | NO
9) CC1(c2ccc(O)c(N)c2)C(=O)Nc2c(Br)cc(Br)cc2C1=O (centres unmarked) [Example 30] | YES
10) CC1(c2ccc(O)cc2)C(=O)Nc2ccccc2C1=O (centres unmarked) [Example 34] | NO
11) COc1ccc(C2(C)C(=O)Nc3cc(N4CCN(C)CC4)cc(Cl)c3C2=O)cc1 (centres unmarked) [Example 46] | YES
12) COc1cc(Cl)c2c(c1)NC(=O)C(C)(c1ccc(Br)cc1)C2=O (centres unmarked) [Example 52] | NO
13) CN1CCN(c2cc(Cl)c3c(c2)NC(=O)C(C)(c2ccc(O)cc2)C3=O)CC1 (centres unmarked) [Example 47] | YES
14) COc1ccc(C2(C)C(=O)Nc3c(Br)cc(Br)cc3C2=O)cc1N (centres unmarked) [Example 29] | YES
15) CC1(c2ccc([N+](=O)[O-])cc2)C(=O)Nc2cc(Cl)cc(Cl)c2C1=O (centres unmarked) [Example 14] | NO
16) CC1(c2ccccc2)C(=O)Nc2c(Br)cc(Br)cc2C1=O (centres unmarked) [Example 10] | NO
